Target Entity: T1, human IL-2Rα subunit (human, UniProt P01589 22-213, limits assumed)
T1 construct: also called CD25
T1 sequence (looked up): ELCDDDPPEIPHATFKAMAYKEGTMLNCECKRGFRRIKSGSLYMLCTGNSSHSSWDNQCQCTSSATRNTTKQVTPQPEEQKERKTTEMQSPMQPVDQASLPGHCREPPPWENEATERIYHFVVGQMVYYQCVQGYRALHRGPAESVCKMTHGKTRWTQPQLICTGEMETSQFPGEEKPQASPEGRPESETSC
Bridge positions count the residues as written; N and C are the ends. Ends that are not written are not given here.
Measure: IC50

Here are 5 binders together with their reported answers.
{"Binder": "DWECIFLPGRRGCTLF (disulfide 4-13 (inferred)) [SEQ ID NO 114]", "IC50": "< 100 µM"}
{"Binder": "HEICCGPPGCHSCSVT [SEQ ID NO 303]", "IC50": "< 100 µM"}
{"Binder": "TCESLARMYNENCI [SEQ ID NO 231]", "IC50": "< 100 µM"}
{"Binder": "SGCSLQWADGWVCIF (disulfide 3-13 (inferred)) [SEQ ID NO 157]", "IC50": "< 100 µM"}
{"Binder": "RRFCLRSEPTACWTV (disulfide 4-12 (inferred)) [SEQ ID NO 66]", "IC50": "< 100 µM"}

Could you tell me which IC50 is on file for QWSCVFSPGVRGCKLV (disulfide 4-13 (inferred)) [SEQ ID NO 97] ?
< 100 µM

Data credit: patent US20200399314A1
